Just for reference, ChEMBL document CHEMBL1149451 is where these values come from.

Target: Angiopoietin-1 receptor (Homo sapiens) (UniProt Q02763)
Sequence (Q02763 whole entry): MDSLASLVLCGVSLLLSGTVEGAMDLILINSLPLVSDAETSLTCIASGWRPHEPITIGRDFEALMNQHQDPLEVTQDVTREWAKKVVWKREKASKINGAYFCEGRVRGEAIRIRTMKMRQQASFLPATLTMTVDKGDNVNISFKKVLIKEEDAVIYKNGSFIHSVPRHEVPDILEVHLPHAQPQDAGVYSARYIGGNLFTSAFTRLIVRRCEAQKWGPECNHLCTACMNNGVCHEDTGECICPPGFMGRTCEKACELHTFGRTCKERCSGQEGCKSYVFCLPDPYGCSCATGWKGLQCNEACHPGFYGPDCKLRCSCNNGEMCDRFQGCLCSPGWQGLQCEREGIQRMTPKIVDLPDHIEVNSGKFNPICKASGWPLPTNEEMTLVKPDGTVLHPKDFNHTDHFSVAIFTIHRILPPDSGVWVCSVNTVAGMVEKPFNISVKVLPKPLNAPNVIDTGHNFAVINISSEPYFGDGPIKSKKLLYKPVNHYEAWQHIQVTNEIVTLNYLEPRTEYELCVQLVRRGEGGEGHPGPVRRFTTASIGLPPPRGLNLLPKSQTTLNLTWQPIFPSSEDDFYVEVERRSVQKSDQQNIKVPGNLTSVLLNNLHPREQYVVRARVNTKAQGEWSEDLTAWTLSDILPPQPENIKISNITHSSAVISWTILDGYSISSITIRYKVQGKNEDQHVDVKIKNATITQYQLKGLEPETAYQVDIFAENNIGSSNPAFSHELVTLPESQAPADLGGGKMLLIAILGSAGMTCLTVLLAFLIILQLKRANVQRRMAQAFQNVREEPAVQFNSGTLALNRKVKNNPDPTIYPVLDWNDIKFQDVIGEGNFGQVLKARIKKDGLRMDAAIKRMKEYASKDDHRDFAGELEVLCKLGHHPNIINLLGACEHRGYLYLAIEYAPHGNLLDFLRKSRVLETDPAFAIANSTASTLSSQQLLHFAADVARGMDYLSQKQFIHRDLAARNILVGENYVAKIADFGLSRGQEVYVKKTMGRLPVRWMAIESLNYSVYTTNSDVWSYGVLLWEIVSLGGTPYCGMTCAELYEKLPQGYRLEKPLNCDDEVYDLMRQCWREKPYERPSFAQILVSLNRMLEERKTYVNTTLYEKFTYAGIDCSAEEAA
Assay: Inhibition of human TIE2 expressed in Sf9 cells at 100 uM; values are per cent of control
Label rule, in plain words: residual activity of 70% and up is criterion met, under 70% is criterion not met.

{"compound": "COc1ccc(C2=C(c3ccccc3)C(=O)NC2=O)cc1OC", "measurementTarget": "Angiopoietin-1 receptor (Homo sapiens) (UniProt Q02763)", "qualitativeLabel": "criterion met"}
{"compound": "COc1cc(C2=C(c3c(-c4ccccc4)[nH]c4ccccc34)C(=O)NC2=O)cc(OC)c1OC", "measurementTarget": "Angiopoietin-1 receptor (Homo sapiens) (UniProt Q02763)", "qualitativeLabel": "criterion met"}
{"compound": "COc1ccc(C2=C(c3ccccc3)C(=O)NC2=O)cc1", "measurementTarget": "Angiopoietin-1 receptor (Homo sapiens) (UniProt Q02763)", "qualitativeLabel": "criterion not met"}
{"compound": "COc1cc(C2=C(c3c[nH]c4ccccc34)C(=O)NC2=O)cc(OC)c1OC [MALEIMIDE]", "measurementTarget": "Angiopoietin-1 receptor (Homo sapiens) (UniProt Q02763)", "qualitativeLabel": "criterion not met"}
{"compound": "COc1ccc2[nH]c3c4c(OC)c(OC)c(OC)cc4c4c(c3c2c1)C(=O)NC4=O", "measurementTarget": "Angiopoietin-1 receptor (Homo sapiens) (UniProt Q02763)", "qualitativeLabel": "criterion not met"}
{"compound": "COc1ccc(C2=C(c3cc(OC)c(OC)c(OC)c3)C(=O)NC2=O)cc1O", "measurementTarget": "Angiopoietin-1 receptor (Homo sapiens) (UniProt Q02763)", "qualitativeLabel": "criterion met"}
{"compound": "COc1cc(C2=C(c3ccccc3)C(=O)NC2=O)cc(OC)c1OC", "measurementTarget": "Angiopoietin-1 receptor (Homo sapiens) (UniProt Q02763)", "qualitativeLabel": "criterion not met"}
{"compound": "COc1cc(C2=C(c3cc[nH]c3)C(=O)NC2=O)cc(OC)c1OC", "measurementTarget": "Angiopoietin-1 receptor (Homo sapiens) (UniProt Q02763)", "qualitativeLabel": "criterion met"}
{"compound": "O=C1NC(=O)C(c2ccccc2)=C1c1ccccc1", "measurementTarget": "Angiopoietin-1 receptor (Homo sapiens) (UniProt Q02763)", "qualitativeLabel": "criterion not met"}
{"compound": "COc1ccc(C2=C(c3ccc(OC)cc3)C(=O)NC2=O)cc1", "measurementTarget": "Angiopoietin-1 receptor (Homo sapiens) (UniProt Q02763)", "qualitativeLabel": "criterion not met"}
{"compound": "COc1ccc(C2=C(c3c[nH]c4ccccc34)C(=O)NC2=O)cc1OC", "measurementTarget": "Angiopoietin-1 receptor (Homo sapiens) (UniProt Q02763)", "qualitativeLabel": "criterion met"}
{"compound": "COc1cc(C2=C(c3cn(C)c4ccccc34)C(=O)NC2=O)cc(OC)c1OC", "measurementTarget": "Angiopoietin-1 receptor (Homo sapiens) (UniProt Q02763)", "qualitativeLabel": "criterion not met"}
{"compound": "COc1cc(C2=C(c3c(C)[nH]c4ccccc34)C(=O)NC2=O)cc(OC)c1OC", "measurementTarget": "Angiopoietin-1 receptor (Homo sapiens) (UniProt Q02763)", "qualitativeLabel": "criterion not met"}
{"compound": "O=C1NC(=O)C(c2c[nH]c3ccccc23)=C1c1cccc2ccccc12", "measurementTarget": "Angiopoietin-1 receptor (Homo sapiens) (UniProt Q02763)", "qualitativeLabel": "criterion not met"}
{"compound": "O=C1NC(=O)C(c2c[nH]c3ccccc23)=C1c1ccc(Cl)cc1", "measurementTarget": "Angiopoietin-1 receptor (Homo sapiens) (UniProt Q02763)", "qualitativeLabel": "criterion met"}
{"compound": "O=C1NC(=O)c2c1c1ccccc1c1[nH]c3ccccc3c21", "measurementTarget": "Angiopoietin-1 receptor (Homo sapiens) (UniProt Q02763)", "qualitativeLabel": "criterion not met"}
{"compound": "COc1ccc(C2=C(c3c[nH]c4ccccc34)C(=O)NC2=O)cc1", "measurementTarget": "Angiopoietin-1 receptor (Homo sapiens) (UniProt Q02763)", "qualitativeLabel": "criterion met"}
{"compound": "COc1cc2c3c(c4c5ccccc5n(C)c4c2c(OC)c1OC)C(=O)NC3=O", "measurementTarget": "Angiopoietin-1 receptor (Homo sapiens) (UniProt Q02763)", "qualitativeLabel": "criterion not met"}
{"compound": "COc1cc(C2=C(c3cc4ccccc4[nH]3)C(=O)NC2=O)cc(OC)c1OC", "measurementTarget": "Angiopoietin-1 receptor (Homo sapiens) (UniProt Q02763)", "qualitativeLabel": "criterion not met"}
{"compound": "O=C1NC(=O)C(c2c[nH]c3ccccc23)=C1c1ccccc1", "measurementTarget": "Angiopoietin-1 receptor (Homo sapiens) (UniProt Q02763)", "qualitativeLabel": "criterion not met"}
{"compound": "COc1ccc(C2=C(c3cc(OC)c(OC)c(OC)c3)C(=O)NC2=O)cc1", "measurementTarget": "Angiopoietin-1 receptor (Homo sapiens) (UniProt Q02763)", "qualitativeLabel": "criterion met"}
{"compound": "COc1cc2c3c(c4c5ccccc5[nH]c4c2c(OC)c1OC)C(=O)NC3=O", "measurementTarget": "Angiopoietin-1 receptor (Homo sapiens) (UniProt Q02763)", "qualitativeLabel": "criterion not met"}

----------
Target: Receptor tyrosine-protein kinase erbB-2 (Homo sapiens) (UniProt P04626)
Sequence (P04626 whole entry): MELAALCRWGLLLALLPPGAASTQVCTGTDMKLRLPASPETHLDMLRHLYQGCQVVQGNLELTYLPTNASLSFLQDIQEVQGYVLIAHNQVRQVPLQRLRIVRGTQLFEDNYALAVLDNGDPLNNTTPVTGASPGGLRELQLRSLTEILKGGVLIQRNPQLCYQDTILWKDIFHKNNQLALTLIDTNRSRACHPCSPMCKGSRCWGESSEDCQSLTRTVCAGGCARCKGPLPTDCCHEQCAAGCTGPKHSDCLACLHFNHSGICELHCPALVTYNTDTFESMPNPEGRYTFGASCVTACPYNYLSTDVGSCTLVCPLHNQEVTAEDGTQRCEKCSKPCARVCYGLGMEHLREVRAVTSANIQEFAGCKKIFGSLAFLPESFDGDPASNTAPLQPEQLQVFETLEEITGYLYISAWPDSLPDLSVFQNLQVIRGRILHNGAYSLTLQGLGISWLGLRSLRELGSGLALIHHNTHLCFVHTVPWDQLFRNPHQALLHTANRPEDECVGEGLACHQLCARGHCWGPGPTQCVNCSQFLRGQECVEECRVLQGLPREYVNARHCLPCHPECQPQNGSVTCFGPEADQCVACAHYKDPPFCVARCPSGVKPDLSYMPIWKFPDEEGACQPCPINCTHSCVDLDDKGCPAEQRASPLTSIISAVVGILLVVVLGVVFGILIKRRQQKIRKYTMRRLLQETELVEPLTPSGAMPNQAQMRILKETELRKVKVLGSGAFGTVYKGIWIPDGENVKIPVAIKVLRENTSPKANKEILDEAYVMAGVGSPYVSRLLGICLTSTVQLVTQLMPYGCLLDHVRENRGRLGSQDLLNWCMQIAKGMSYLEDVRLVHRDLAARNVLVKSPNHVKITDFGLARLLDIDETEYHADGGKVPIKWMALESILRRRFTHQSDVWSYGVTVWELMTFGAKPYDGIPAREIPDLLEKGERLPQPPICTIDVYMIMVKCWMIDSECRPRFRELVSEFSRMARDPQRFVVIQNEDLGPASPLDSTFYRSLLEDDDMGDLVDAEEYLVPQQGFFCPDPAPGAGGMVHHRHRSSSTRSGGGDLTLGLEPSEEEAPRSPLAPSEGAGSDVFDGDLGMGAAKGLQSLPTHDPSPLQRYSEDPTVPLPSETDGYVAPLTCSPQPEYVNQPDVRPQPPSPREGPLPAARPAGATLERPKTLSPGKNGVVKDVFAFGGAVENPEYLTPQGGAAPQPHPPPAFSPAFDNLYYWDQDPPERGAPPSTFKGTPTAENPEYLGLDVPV
Assay: Inhibition of human ERBB2 expressed in Sf9 cells at 100 uM; values are per cent of control
Hi! Just check whether residual activity is below 80%. Below gives y, equal or above gives n.

{"compound": "COc1cc(C2=C(c3cn(C)c4ccccc34)C(=O)NC2=O)cc(OC)c1OC", "qualitativeLabel": "y"}
{"compound": "O=C1NC(=O)C(c2c[nH]c3ccccc23)=C1c1ccccc1", "qualitativeLabel": "y"}
{"compound": "COc1cc2c3c(c4c5ccccc5[nH]c4c2c(OC)c1OC)C(=O)NC3=O", "qualitativeLabel": "y"}
{"compound": "O=C1NC(=O)c2c1c1ccccc1c1[nH]c3ccccc3c21", "qualitativeLabel": "y"}
{"compound": "COc1cc2c3c(c4c5ccccc5n(C)c4c2c(OC)c1OC)C(=O)NC3=O", "qualitativeLabel": "y"}
{"compound": "COc1ccc(C2=C(c3ccc(OC)cc3)C(=O)NC2=O)cc1", "qualitativeLabel": "n"}
{"compound": "COc1ccc2[nH]cc(C3=C(c4cc(OC)c(OC)c(OC)c4)C(=O)NC3=O)c2c1", "qualitativeLabel": "n"}
{"compound": "COc1ccc(C2=C(c3c[nH]c4ccccc34)C(=O)NC2=O)cc1", "qualitativeLabel": "y"}
{"compound": "COc1cc(C2=C(c3c(-c4ccccc4)[nH]c4ccccc34)C(=O)NC2=O)cc(OC)c1OC", "qualitativeLabel": "n"}
{"compound": "O=C1NC(=O)C(c2ccccc2)=C1c1ccccc1", "qualitativeLabel": "n"}
{"compound": "COc1ccc(C2=C(c3c[nH]c4ccccc34)C(=O)NC2=O)cc1OC", "qualitativeLabel": "y"}
{"compound": "COc1ccc(C2=C(c3ccccc3)C(=O)NC2=O)cc1", "qualitativeLabel": "n"}
{"compound": "O=C1NC(=O)C(c2c[nH]c3ccccc23)=C1c1cccc2ccccc12", "qualitativeLabel": "y"}
{"compound": "COc1cc(C2=C(c3c(C)[nH]c4ccccc34)C(=O)NC2=O)cc(OC)c1OC", "qualitativeLabel": "n"}
{"compound": "COc1cc(C2=C(c3cc[nH]c3)C(=O)NC2=O)cc(OC)c1OC", "qualitativeLabel": "n"}
{"compound": "COc1cc(C2=C(c3c[nH]c4ccccc34)C(=O)NC2=O)cc(OC)c1OC [MALEIMIDE]", "qualitativeLabel": "y"}
{"compound": "COc1ccc(C2=C(c3cc(OC)c(OC)c(OC)c3)C(=O)NC2=O)cc1O", "qualitativeLabel": "n"}
{"compound": "COc1cc(C2=C(c3cc4ccccc4[nH]3)C(=O)NC2=O)cc(OC)c1OC", "qualitativeLabel": "y"}

----------
Known pIC50 of a selection of compounds
Target: Vascular endothelial growth factor receptor 2 (Homo sapiens, UniProt P35968)
Sequence (P35968 whole entry): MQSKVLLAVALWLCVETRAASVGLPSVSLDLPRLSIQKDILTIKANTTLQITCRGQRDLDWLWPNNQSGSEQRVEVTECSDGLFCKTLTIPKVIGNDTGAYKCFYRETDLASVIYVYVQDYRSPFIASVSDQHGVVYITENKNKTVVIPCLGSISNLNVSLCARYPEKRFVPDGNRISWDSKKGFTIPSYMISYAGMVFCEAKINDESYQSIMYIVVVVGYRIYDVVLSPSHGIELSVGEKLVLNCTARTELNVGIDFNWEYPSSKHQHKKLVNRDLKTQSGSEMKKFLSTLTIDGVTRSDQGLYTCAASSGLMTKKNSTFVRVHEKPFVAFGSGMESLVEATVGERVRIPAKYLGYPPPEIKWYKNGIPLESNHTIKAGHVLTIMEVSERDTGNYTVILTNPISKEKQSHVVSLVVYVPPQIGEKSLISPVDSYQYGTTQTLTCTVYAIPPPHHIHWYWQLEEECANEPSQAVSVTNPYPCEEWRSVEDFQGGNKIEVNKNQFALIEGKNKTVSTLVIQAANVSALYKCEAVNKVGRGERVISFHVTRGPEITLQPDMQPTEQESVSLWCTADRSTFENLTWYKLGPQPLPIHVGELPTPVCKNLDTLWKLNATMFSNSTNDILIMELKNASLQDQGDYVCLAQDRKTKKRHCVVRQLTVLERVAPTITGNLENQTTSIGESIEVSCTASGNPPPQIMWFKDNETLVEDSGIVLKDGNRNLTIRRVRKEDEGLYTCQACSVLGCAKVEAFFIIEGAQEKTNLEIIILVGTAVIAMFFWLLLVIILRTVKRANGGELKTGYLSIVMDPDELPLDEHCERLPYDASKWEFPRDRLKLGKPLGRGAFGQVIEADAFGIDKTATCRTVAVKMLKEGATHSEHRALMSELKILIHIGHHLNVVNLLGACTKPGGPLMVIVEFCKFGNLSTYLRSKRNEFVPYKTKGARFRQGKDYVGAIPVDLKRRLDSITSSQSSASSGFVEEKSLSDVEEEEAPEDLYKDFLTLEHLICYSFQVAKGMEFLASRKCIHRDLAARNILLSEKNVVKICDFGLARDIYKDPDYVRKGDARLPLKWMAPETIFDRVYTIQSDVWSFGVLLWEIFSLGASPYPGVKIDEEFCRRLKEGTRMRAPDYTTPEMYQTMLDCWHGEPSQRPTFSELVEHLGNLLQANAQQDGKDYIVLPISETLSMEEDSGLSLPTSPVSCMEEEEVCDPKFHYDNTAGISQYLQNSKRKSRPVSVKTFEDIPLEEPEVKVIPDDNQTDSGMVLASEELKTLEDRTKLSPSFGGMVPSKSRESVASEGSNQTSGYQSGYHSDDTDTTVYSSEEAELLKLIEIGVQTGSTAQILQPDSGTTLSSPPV
pIC50: −log10 of the molar value.

{"sampleSmiles": "COc1ccc2[nH]cc(C3=C(c4cc(OC)c(OC)c(OC)c4)C(=O)NC3=O)c2c1", "pIC50": 6.03}
{"sampleSmiles": "COc1cc2c3c(c4c5ccccc5[nH]c4c2c(OC)c1OC)C(=O)NC3=O", "pIC50": 7.21}
{"sampleSmiles": "COc1cc2c3c(c4c5ccccc5n(C)c4c2c(OC)c1OC)C(=O)NC3=O", "pIC50": 6.19}
{"sampleSmiles": "COc1ccc(C2=C(c3c[nH]c4ccccc34)C(=O)NC2=O)cc1OC", "pIC50": 6.37}

----------
Molecular target: Cyclin-dependent kinase 1/cyclin B (Homo sapiens) (UniProt P06493+P14635+Q8WWL7+O95067)
Assay: Inhibition of human CDK1/cycB expressed in Sf9 cells at 100 uM; values are per cent of control
Known residual activity of a selection of molecules

{"molecule": "COc1ccc(C2=C(c3c[nH]c4ccccc34)C(=O)NC2=O)cc1OC", "residual activity [%]": 85}
{"molecule": "COc1ccc(C2=C(c3ccccc3)C(=O)NC2=O)cc1OC", "residual activity [%]": 86}
{"molecule": "COc1ccc2[nH]c3c4c(OC)c(OC)c(OC)cc4c4c(c3c2c1)C(=O)NC4=O", "residual activity [%]": 75}
{"molecule": "COc1cc(C2=C(c3c(-c4ccccc4)[nH]c4ccccc34)C(=O)NC2=O)cc(OC)c1OC", "residual activity [%]": 107}
{"molecule": "COc1ccc(C2=C(c3cc(OC)c(OC)c(OC)c3)C(=O)NC2=O)cc1O", "residual activity [%]": 89}
{"molecule": "COc1cc(C2=C(c3cc4ccccc4[nH]3)C(=O)NC2=O)cc(OC)c1OC", "residual activity [%]": 83}
{"molecule": "O=C1NC(=O)C(c2c[nH]c3ccccc23)=C1c1cccc2ccccc12", "residual activity [%]": 5}
{"molecule": "O=C1NC(=O)C(c2c[nH]c3ccccc23)=C1c1ccccc1", "residual activity [%]": 89}
{"molecule": "O=C1NC(=O)C(c2ccccc2)=C1c1ccccc1", "residual activity [%]": 106}
{"molecule": "COc1ccc(C2=C(c3c[nH]c4ccccc34)C(=O)NC2=O)cc1", "residual activity [%]": 70}
{"molecule": "COc1ccc(C2=C(c3ccc(OC)cc3)C(=O)NC2=O)cc1", "residual activity [%]": 101}
{"molecule": "O=C1NC(=O)C(c2c[nH]c3ccccc23)=C1c1ccc(Cl)cc1", "residual activity [%]": 101}
{"molecule": "COc1cc(C2=C(c3ccccc3)C(=O)NC2=O)cc(OC)c1OC", "residual activity [%]": 105}
{"molecule": "COc1cc(C2=C(c3cn(C)c4ccccc34)C(=O)NC2=O)cc(OC)c1OC", "residual activity [%]": 46}
{"molecule": "COc1ccc(C2=C(c3cc(OC)c(OC)c(OC)c3)C(=O)NC2=O)cc1", "residual activity [%]": 88}
{"molecule": "COc1cc(C2=C(c3c[nH]c4ccccc34)C(=O)NC2=O)cc(OC)c1OC [MALEIMIDE]", "residual activity [%]": 68}
{"molecule": "O=C1NC(=O)c2c1c1ccccc1c1[nH]c3ccccc3c21", "residual activity [%]": 66}
{"molecule": "COc1cc(C2=C(c3c(C)[nH]c4ccccc34)C(=O)NC2=O)cc(OC)c1OC", "residual activity [%]": 73}
{"molecule": "COc1cc2c3c(c4c5ccccc5[nH]c4c2c(OC)c1OC)C(=O)NC3=O", "residual activity [%]": 41}
{"molecule": "COc1ccc2[nH]cc(C3=C(c4cc(OC)c(OC)c(OC)c4)C(=O)NC3=O)c2c1", "residual activity [%]": 95}
{"molecule": "COc1cc2c3c(c4c5ccccc5n(C)c4c2c(OC)c1OC)C(=O)NC3=O", "residual activity [%]": 41}
{"molecule": "COc1ccc(C2=C(c3ccccc3)C(=O)NC2=O)cc1", "residual activity [%]": 96}
{"molecule": "COc1cc(C2=C(c3cc[nH]c3)C(=O)NC2=O)cc(OC)c1OC", "residual activity [%]": 101}
